Values compiled from ChEMBL document CHEMBL1201862.

- Test system: UO-31
- PROCEDURE_SUMMARY: NCI tumour cell line growth inhibition, 48 h
Activity calls are given as the source filed them. No stated cut-off is given here; in the data, active = GI50 up to about 1.1 µM and inactive = higher.
Recorded GI50 by entry

Q: Please give the measured GI50 for this compound: `CC1(C)N=[N+]([O-])C1(C)C`
A: > 100 µM (inactive)

###

- System: SF-295
- PROCEDURE_SUMMARY: NCI tumour cell line growth inhibition, 48 h
The source made the active and inactive calls. Rule as the data show it: active = GI50 up to about 1.1 µM and inactive = higher.
Entry note: the call must match one of Yes for active, No for inactive

COc1ccc(NC(=O)C2=C(SC)C(C#N)C(=O)N=C2N)cc1 (stereo not drawn) : No
CNC(=S)NNc1ncnc2c1c(-c1ccc(Cl)cc1)cn2-c1ccc(C)cc1 : No
O=C(CC(C(=O)c1ccsc1)c1cccs1)c1ccccc1 (stereo not drawn) : No
CN(C)Nc1cc(=O)[nH]c(=O)[nH]1 : No
N#CC(NNC(=O)Cc1ccccc1)c1ccccc1O (stereo not drawn) : No

Q: Recorded call for `Cc1ccc(C(=O)/C=C2\Nc3ccccc3SC2=O)c(C)c1` ?
A: No

Q: Recorded call for `C/C=C/C(=O)N1C(=O)OC[C@@H]1c1ccccc1` ?
A: No

Q: Recorded call for CC(=O)O/C=C\OC1CCCC1(c1ccccc1)c1ccccc1 (stereo not drawn) ?
A: No

Q: Recorded call for `COc1cc(C=C(c2ccc(N(C)C)cc2)c2ccc(N(C)C)cc2)c2ccccc2c1OC` ?
A: No

Q: Recorded call for C/C(=N/NC(=O)C(N)=O)C(CC(C(=O)Nc1ccccc1C)/C(C)=N\NC(=O)C(N)=O)C(=O)Nc1ccccc1C (stereo not drawn) ?
A: No

Q: Recorded call for `Cc1cc(/C=C/c2cc[n+](C)c3ccccc23)c(O)c2ncccc12` ?
A: Yes

Q: Recorded call for `CC1=CC[C@@H]2[C@@H](CC[C@@]2(C)O)C(C)(C)[C@H]1CC[C@@H]1[C@@]2(C)CC[C@@H](O)C(C)(C)O[C@@H]2CC[C@]1(C)O` ?
A: No

Q: Recorded call for O=C(O)c1ccccc1CC1Cc2ccccc2C1=O (stereo not drawn) ?
A: No

###

- Tested on: SF-539
- PROCEDURE_SUMMARY: NCI tumour cell line growth inhibition, 48 h
Activity calls are given as the source filed them. Cut-off read from the data, not from the text of the source: active = GI50 up to about 1.1 µM and inactive = higher.
QUANTITY: GI50

Cc1nc(C)c(C(=O)Nc2cccc3c2C(=O)NC3=O)cc1C(=O)Nc1cccc2c1C(=O)NC2=O : > 100 µM (inactive)
CCOC(=O)C(Cc1ccc2c(c1)CCC2)Cc1ccc2c(c1)CCC2 : > 100 µM (inactive)
CCc1ccc(/C=C\c2cc(OC)c(OC)c(OC)c2)cc1 : 0.0101 µM (active)
CCOc1ccc2c(c1)C(/C(C(Cl)=C(Cl)Cl)=[N+](/[O-])OC(=O)c1ccccc1)=N2 : 79.3 µM (inactive)
NCCC(N)C(=O)O (stereo not given) : > 100 µM (inactive)
CCOC(=O)C1=C(C)NC(=O)NC1c1ccc(N(CCCl)CCCl)cc1Cl (stereo not given) : 17.2 µM (inactive)
COc1ccc(C(=O)C2=NON3OC23C(=O)c2ccc(OC)cc2)cc1 (stereo not given) : 10.3 µM (inactive)
CC1=CC[C@@H]2[C@@H](CC[C@@]2(C)O)C(C)(C)[C@H]1CC[C@@H]1[C@@]2(C)CC[C@@H](O)C(C)(C)O[C@@H]2CC[C@]1(C)O : 19.6 µM (inactive)

Q: Form field: GI50 recorded for `O=c1nc2sc3ccc4ccccc4c3n2nc1O` with SF-539 (enter value)
A: > 100 µM (inactive)

Q: Form field: GI50 recorded for CC1=NC(C(=O)O)Cc2c1[nH]c1ccccc21 (stereo not given) with SF-539 (enter value)
A: > 100 µM (inactive)
